- TARGET_OR_TEST_SYSTEM: Acetylcholinesterase (Homo sapiens)
- Sequence (P22303 whole entry): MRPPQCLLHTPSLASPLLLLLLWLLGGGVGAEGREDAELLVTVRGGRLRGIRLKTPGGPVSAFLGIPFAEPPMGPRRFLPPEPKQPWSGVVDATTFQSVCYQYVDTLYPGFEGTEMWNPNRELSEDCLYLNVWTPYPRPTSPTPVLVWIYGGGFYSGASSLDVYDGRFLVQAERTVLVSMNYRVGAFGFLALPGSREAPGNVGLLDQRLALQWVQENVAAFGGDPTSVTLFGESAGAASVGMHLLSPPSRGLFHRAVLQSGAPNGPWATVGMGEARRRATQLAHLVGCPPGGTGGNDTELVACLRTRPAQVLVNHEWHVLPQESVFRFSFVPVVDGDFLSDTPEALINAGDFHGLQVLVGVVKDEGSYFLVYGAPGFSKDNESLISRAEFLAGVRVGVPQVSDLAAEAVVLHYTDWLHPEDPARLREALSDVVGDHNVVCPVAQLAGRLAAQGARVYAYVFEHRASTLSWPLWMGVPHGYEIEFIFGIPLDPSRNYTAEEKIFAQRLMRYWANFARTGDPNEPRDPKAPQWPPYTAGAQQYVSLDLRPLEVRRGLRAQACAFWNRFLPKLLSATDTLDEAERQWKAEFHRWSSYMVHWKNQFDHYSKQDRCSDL
- ASSAY_OVERVIEW: Inhibitory activity against Acetylcholinesterase
pIC50: −log10 of the molar value.
QUANTITY_KIND: pIC50

INSERT INTO results (compound, value_measured) VALUES
  ('COc1ccc(-c2cc3c(c(=O)o2)C(=O)C2[C@@]4(C)CC[C@H](O)[C@@](C)(CO)C4C[C@H](O)[C@@]2(C)O3)cc1 (some centres undefined)', 4.15),
  ('C[C@]12CC[C@H](O)[C@@](C)(CO)C1C[C@H](O)[C@@]1(C)Oc3cc(-c4ccccn4)oc(=O)c3C(=O)C21 (some centres undefined)', 4.00),
  ('COc1cc(-c2cc3c(c(=O)o2)C[C@]2(O)[C@@]4(C)C(=O)C=CC(C)(C)[C@]4(O)CC[C@@]2(C)O3)cc(OC)c1OC', 8.10),
  ('COc1ccc(-c2cc3c(c(=O)o2)C[C@]2(O)[C@@]4(C)C(=O)C=CC(C)(C)[C@]4(O)CC[C@@]2(C)O3)cc1', 7.59);
